# test_protocol: P. aeruginosa biofilm formation inhibitors, primary screen, strain PAO1, LB-PBS medium, absorbance 600 nm (AID 1176); also: test concentration not given here
# experimental_parameters: P. aeruginosa PAO1 growth/biofilm, A600, 12 h; higher = more signal
Calls of active or inactive are those of the source. No rule for the calls is given here.
measured_property: z-score

Which z-score is listed for "COCCOC(=O)N1C(=O)[C@@]2(c3cc(C#Cc4ccc(OC)cc4)ccc31)[C@H](C(=O)N1CCCCCCC1)[C@H]1C(=O)O[C@H](c3ccccc3)[C@H](c3ccccc3)N1[C@@H]2c1ccc(O)cc1" ?
0.721 (inactive)

I have this compound here, "CCCC[C@@H]1C[C@H]1[C@@H](NC(=O)c1cccnc1)c1ccc(-c2ccccc2)cc1" , and I need its recorded z-score.
-0.0982 (inactive)

Please look up its z-score: "COc1cc2c(cc1OC)CN(C(=O)[C@H]1[C@@H]3C(=O)O[C@@H](c4ccccc4)[C@@H](c4ccccc4)N3[C@@H](c3ccc(OCCO)cc3)[C@]13C(=O)Nc1ccc(C#CC4(O)CCCCCC4)cc13)CC2"
2.91 (inactive)

Which z-score is reported for this compound? COc1ccc(C(O)C2C=CC3C(=O)N(c4ccccc4)C(=O)C3N2Nc2ccccc2)cc1OCc1ccccc1 (stereo not drawn)
1.67 (inactive)

Could you share which z-score value was measured for "C=CCOC(=O)[C@H]1[C@@H]2C(=O)O[C@@H](c3ccccc3)[C@@H](c3ccccc3)N2[C@@H](c2ccc(OCCOC(=O)[C@H]3C[C@H]4C(=O)N[C@@H](Cc5ccccc5)C(=O)N4[C@H]3c3ccc(O)cc3)cc2)[C@]12C(=O)Nc1ccc(I)cc12" ?
4.1 (inactive)

Quick one: z-score for "COCCOC(=O)N1C(=O)[C@@]2(c3ccccc31)[C@H](C(=O)N1CCN(c3ncccn3)CC1)[C@H]1C(=O)O[C@H](c3ccccc3)[C@H](c3ccccc3)N1[C@@H]2c1ccc(OCCO)cc1" ?
2 (inactive)

Return reported z-score; argument: "Cc1c(NC(=O)/C(C#N)=C/C=C/c2ccccc2[N+](=O)[O-])c(=O)n(-c2ccccc2)n1C"
-0.6 (inactive)

Reported z-score, compound "O=C1c2ccccc2[C@@]2(Cc3ccccc3N(C3CC3)C2=O)[C@H](c2ccc(CO)cc2)N1C1CCCCC1" : ____
0.264 (inactive)

Returns the measured z-score for the input compound. Input: "O=C1O[C@@H](c2ccccc2)[C@@H](c2ccccc2)N2[C@@H](c3ccc(O)cc3)[C@]3(C(=O)Nc4ccccc43)[C@@H](C(=O)Nc3nc4ccccc4s3)[C@H]12"
2.43 (inactive)

For the compound shown here, "CN(C)CCCNC(=O)[C@@]1(C)c2ccccc2C(=O)N(Cc2cc(C(F)(F)F)cc(C(F)(F)F)c2)[C@H]1c1ccc(CO)cc1" , give the reported z-score.
1.98 (inactive)

Fill in the blank: the reported z-score of "C[N+](C)(C)CCCC[C@@H]1NC(=O)[C@@H]2C[C@H](C(=O)O)[C@H](c3ccc(O)cc3)N2C1=O" is ____.
0.103 (inactive)

Using the record for "COc1ccc([Si](C)(C)[C@@H]2[C@@H](CCO)O[C@]3(C(=O)N(Cc4cccc(N5C(=O)c6cccc7cccc5c67)c4)c4ccccc43)[C@H]2C)cc1" , report its z-score.
1.53 (inactive)

Consider the compound Cc1ccc(C(C)CC(O)C2C=CC3C(=O)N(c4ccccc4)C(=O)C3N2Nc2ccc(C(C)C)cc2)o1 (stereo not drawn) and give its measured z-score.
1.5 (inactive)
